Data origin: patent US20050101575A1

Listing of recorded IC50 by entry.
test system: HL-60 cell; test: Vitamin D3 antagonist effect: suppression of HL-60 cell differentiation induced by 1α,25-dihydroxyvitamin D3 (NBT reduction activity); type: cell-based; settings: Homo sapiens, HL-60, 96 h, simultaneous treatment with 1α,25-dihydroxyvitamin D3 (1×10^−8 M); compound 1×10^−9 to 1×10^−6 M; 4 days at 37° C.; read-out: IC50 (nM), suppression of NBT reduction activity induction in HL-60 cell

Provide one value: measured IC50 of C=C1C[C@H](C[C@@H](C)[C@H]2CC[C@H]3/C(=C/C=C4/C[C@@H](O)[C@H](C)[C@H](O)C4=C)CCC[C@]23C)OC1=O [Compound No. 22d]
< 50 nM

Identify IC50 associated with the compound C=C1C[C@H](C[C@@H](C)[C@H]2CC[C@H]3/C(=C/C=C4/C[C@H](O)[C@H](C)[C@H](O)C4=C)CCC[C@]23C)OC1=O [Compound No. 22b]
< 50 nM

Identify measured IC50 associated with C=C1CC(/C=C/[C@@H](C)[C@H]2CC[C@H]3/C(=C/C=C4/C[C@@H](O)C[C@H](O)C4=C)CCC[C@]23C)OC1=O (some centres unmarked) [Compound No. 31b]
< 50 nM

Provide only the value of recorded IC50 for C=C1CC(/C=C/[C@@H](C)[C@H]2CC[C@H]3/C(=C/C=C4/C[C@@H](O)[C@H](C)[C@H](O)C4=C)CCC[C@]23C)OC1=O (some centres unmarked) [Compound No. 32a]
< 50 nM

Output measured IC50 for this item: C=C1CC([C@@H](C)[C@H]2CC[C@H]3/C(=C/C=C4/C[C@@H](O)C[C@H](O)C4=C)CCC[C@]23C)OC1=O (some centres unmarked) [Compound No. 11a]
50 to 150 nM
